These entries and their values trace back to ChEMBL document CHEMBL1201862.

System: SR
protocol_notes: NCI tumour cell line growth inhibition, 48 h
Active and inactive are the calls of the source. No stated cut-off is given here; in the data, active = GI50 up to about 1.1 µM and inactive = higher.
Classes used: active, inactive

{"compound": "CC12CCC3C(CCC4CC(OC(=O)Cc5ccc(N(CCCl)CCCl)cc5)CCC43C)C1CCC(=O)N2 (configuration not stated)", "classification": "inactive"}
{"compound": "O=C(Nc1ccc(C(F)(F)F)cc1[N+](=O)[O-])C(=O)C1NC(=S)NC1=O (configuration not stated)", "classification": "inactive"}
{"compound": "Clc1ccc(-c2cn3c(nc4ccccc43)c(-c3ccccc3)n2)cc1", "classification": "inactive"}
{"compound": "O=C(O)C1(c2ccccc2)CCCNCC1 (configuration not stated)", "classification": "inactive"}
{"compound": "CC(=O)OCC1OC(OC2C(CSC3OC(COC(C)=O)C(OC(C)=O)C(OC(C)=O)C3OC(C)=O)OC(OC(C)=O)C(OC(C)=O)C2OC(C)=O)C(OC(C)=O)C(OC(C)=O)C1OC(C)=O (configuration not stated)", "classification": "inactive"}
{"compound": "COc1ccc(C(=O)/C=C/c2ccc(OCCCOc3ccc(/C=C/C(=O)c4ccc(OC)cc4)cc3)cc2)cc1", "classification": "inactive"}
{"compound": "O=C(O)CC12CC3CC(CC(O)(C3)C1)C2", "classification": "inactive"}
{"compound": "C=C(C)C1Cc2c(cc(OC)c3c(=O)c4cccc(O)c4oc23)O1 (configuration not stated)", "classification": "inactive"}
{"compound": "N/N=C1\\CCCc2c1no[n+]2[O-]", "classification": "inactive"}
{"compound": "CCOC(=O)c1csc(NC(=O)CN2CCCC2)n1", "classification": "inactive"}
{"compound": "CC1(C)OC2[C@@H](CO[C@@]3([C@@H](O)CCO)OC(C)(C)O[C@@H]23)O1 (some centres not stated)", "classification": "inactive"}
{"compound": "COC(=O)/C(=N\\NC(=S)NN)C(C(=O)C(=O)Nc1ccccc1C(N)=O)c1nc2ccccc2nc1O (configuration not stated)", "classification": "inactive"}
{"compound": "Cc1ccc2[nH]c3c(c2c1)CCC/C3=N/N=C(N)N", "classification": "inactive"}
{"compound": "COc1ccc2c(c1)c1c(n2CCN2CCOCC2)-c2cccc(OC)c2CC1", "classification": "inactive"}
{"compound": "O=S(=O)(c1ccc(Br)cc1)N1CCN(S(=O)(=O)c2ccc(Br)cc2)CC1", "classification": "active"}
{"compound": "CC(C)(C)CC(C)(C)c1ccc(OCCOCC[N+](C)(C)Cc2ccccc2)cc1 [BENZETHONIUM CHLORIDE]", "classification": "inactive"}
{"compound": "CCC(CN(C)C)C(=O)c1ccco1 (configuration not stated)", "classification": "inactive"}
{"compound": "N=c1oc2ccccc2cc1C(=O)Nc1ccccn1", "classification": "inactive"}
{"compound": "Cc1ccc(S(=O)(=O)N/N=C2\\C3CC4CC(C3)C2C4)cc1 (configuration not stated)", "classification": "inactive"}
{"compound": "CCOC(=O)c1cc(C2CCN(c3ccccc3)C2=O)c(C(=O)/C=C(/C)N)[nH]1 (configuration not stated)", "classification": "inactive"}
{"compound": "CN(Cc1cnc2nc(N)nc(N)c2n1)c1ccc(C(=O)NCCCS(=O)(=O)O)cc1", "classification": "inactive"}
{"compound": "O=C(c1ccccc1)c1cc(Cl)ccc1NCn1nnc2ccccc21", "classification": "inactive"}
